# Tested on: UACC-257 melanoma
# methodSummary: NCI tumour cell line growth inhibition, 48 h
Parameter TGI: see the listing below.
Provide the reading as a plain figure in µM.

structureString | u | TGI
COc1ccc(Cc2ccccc2C(=O)O)c2ccccc12 | µM | 48.3

Now consider a different compound.
INPUT: Look at this compound and give its reported TGI. "COc1ccc(N(C(=O)OC(C)(C)C)[C@@H]2C(C)=C[C@H]([S@@](=O)c3ccc(C)cc3)[C@@H]3C(=O)N(C)C(=O)[C@@H]32)cc1"
OUTPUT: 43.8

----------
# Test system: TK-10 renal
# methodSummary: NCI tumour cell line growth inhibition, 48 h
observedProperty: TGI

Some solved entries appear below for comparison.
compound | testedSystem | TGI
CCOC(=O)c1c(NC(=S)NCc2ccccc2)sc2c1CCN(C)C2 | TK-10 renal | > 100 µM
N#Cc1nn(-c2ccc(Cl)cc2)c(N)c2c(=N)n3nc(-c4ccccc4)cc3nc12 | TK-10 renal | > 100 µM
CN(C)CCn1cc(-c2ccc3c(Nc4ccc(CC(=O)Nc5cccc(F)c5)cc4)ncnc3c2)cn1 | TK-10 renal | 4.21 µM
OC(Cn1cncn1)(Cn1cncn1)c1ccc(Cl)cc1Cl | TK-10 renal | > 100 µM
COC(=O)c1oc2c(C(=O)/C=C/c3ccc(OC)cc3)c(OCCCN3CCCCC3)ccc2c1C | TK-10 renal | 5.71 µM

INPUT: Look at this compound and give its reported TGI. "O=C(OCCOCCOC(=O)c1c[nH]cc1-c1ccccc1)c1c[nH]cc1-c1ccccc1"
OUTPUT: 80.1 µM

INPUT: Look at this compound and give its reported TGI. "O=Cc1ccc(C(F)(F)F)cc1.[C-]#[O+].[C-]#[O+].[C-]#[O+].[Cr]"
OUTPUT: > 100 µM

INPUT: Look at this compound and give its reported TGI. "Cc1[nH]n(C(=O)c2ccccc2O)c(=O)c1/C=C1\C(=O)C=Cc2ccccc21"
OUTPUT: > 100 µM

INPUT: Look at this compound and give its reported TGI. O=C1/C(=C/c2ccc(O)cc2)CCC1CNc1ccc(Cl)cc1 (stereo not given)
OUTPUT: 10.3 µM

INPUT: Look at this compound and give its reported TGI. "Cc1cc2c(=O)cc(-c3ccc(Cl)cc3)oc2c(C(=O)O)c1C"
OUTPUT: > 100 µM

INPUT: Look at this compound and give its reported TGI. "CCCCCCc1cc(C=O)sc1-c1ccc(-c2sc(-c3ccc(-c4ccc(-c5cc(CCCCCC)c(-c6ccc(-c7sc(C=O)cc7CCCCCC)s6)s5)s4)s3)cc2CCCCCC)s1"
OUTPUT: > 100 µM

INPUT: Look at this compound and give its reported TGI. CCOC1NC(=O)Oc2ccccc21 (stereo not given)
OUTPUT: > 100 µM

INPUT: Look at this compound and give its reported TGI. "Cc1c2cc[n+](C)cc2c(C)c2c1[nH]c1ccc(O)cc12"
OUTPUT: > 100 µM

INPUT: Look at this compound and give its reported TGI. "COc1cc(O)c(C(=O)/C=C/c2ccc(O)cc2)cc1Oc1ccc(C(=O)/C=C/c2ccc(O)cc2)c(O)c1"
OUTPUT: 11.3 µM

INPUT: Look at this compound and give its reported TGI. "C[N+](C)(C)CCCCCc1c2nc(c(CCCCC[N+](C)(C)C)c3ccc([nH]3)c(CCCCC[N+](C)(C)C)c3ccc([nH]3)c(CCCCC[N+](C)(C)C)c3nc1C=C3)C=C2"
OUTPUT: > 100 µM

INPUT: Look at this compound and give its reported TGI. "O=Cc1cc(O)c(O)c(O)c1-c1c(C=O)cc(O)c(O)c1O"
OUTPUT: > 100 µM
